- Test system: Wolbachia pipientis
- experimental-details: Anti-Wolbachia Cell-Based Screen
- Format: functional
- Set-up: scale not given: in the data most compounds retested in dose-response had high values
- experimental-conditions: 5 µM
Screen size: about 48,000 compounds; about 13,000 (27%) showed an effect of 50% or more. The list shows a part of the results.
readout-label: Percent Effect (%)
Numeric answer only, unit % assumed.

Below: 6 compounds and their reported Percent Effect.
compound	reported-measurement
O=C(Cc1cccc(F)c1F)N1CCOC(c2cccc(O)c2)C1 (configuration not stated)	-10.07
CN(C)CCNc1cc(-c2ccc[nH]c2=O)c2cc[nH]c2n1	6.813
COc1nccnc1-c1cc(NC2CCNCC2)nc2[nH]ccc12	-9.475
CC(=O)NCC(=O)N1CCN(C)c2ncccc2C1	-12.03
O=C(c1coc(COc2cccc(F)c2)n1)N1CC[C@H](O)[C@@H](O)C1	-11.67
COc1ccc(CCNC(=O)C2CC2)c(Cl)c1	-15.6

Result for `NC(=O)C1CCN(CC(=O)NCCc2c(F)cccc2F)CC1` , tested on Wolbachia pipientis, Percent Effect: -5.279

Value (Percent Effect, Wolbachia pipientis) for record `Nc1nc2c(c(N3CCOCC3)n1)CCN(C(=O)c1ccc[nH]1)CC2` = 39.51

Summary line: `CC(=O)N1CCC(C(=O)NCCN2CCCCC2)CC1` , Wolbachia pipientis, reported Percent Effect = 12.8

Noted Percent Effect for `CNc1cc(C)nc(-c2cc(NCCO)nc3[nH]ccc23)n1` , tested on Wolbachia pipientis: 88.51

Wolbachia pipientis data for `CN(C)c1nc2c(c(N3CCCC3)n1)CCN(C(=O)c1ccc[nH]1)CC2` ; its Percent Effect: 91.66

Observed Percent Effect on Wolbachia pipientis, entry `COc1cc(C2(C(=O)NCC(=O)NC3CC3)CC2)ccc1C` , equals 9.021

Item CN(Cc1nc(C2CC2)no1)C(=O)C1COc2ccccc2C1 (configuration not stated) ; assay system Wolbachia pipientis; Percent Effect reported as 29.53

Summary line: COc1ccc2cc(C3CN(C(=O)CN4CCCC4)CCO3)ccc2c1 (configuration not stated) , Wolbachia pipientis, reported Percent Effect = 0.8606

Query `CNc1cc(C)nc(-c2cc(NC3CCNCC3)nc3[nH]ccc23)n1` on Wolbachia pipientis; Percent Effect returned: 81.74

For the compound `Nc1ccnc(-c2cc(NC3CCNCC3)nc3[nH]ccc23)c1` , the measured Percent Effect on Wolbachia pipientis was 10.25

With Wolbachia pipientis as the test system, CCN(CC)C(CNCc1ccc(C)o1)c1ccco1 (configuration not stated) showed Percent Effect of 6.767

* * *

Below is a list of entries, each paired with its recorded Percent Effect value.
- System: Wolbachia pipientis
- experimental-details: Anti-Wolbachia Cell-Based Screen
- Assay type: functional
- Parameters: scale not given: in the data most compounds retested in dose-response had high values
- experimental-conditions: 5 µM
Out of some 48,000 compounds screened, about 13,000 (27%) showed an effect of 50% or more. The list shows a part of the results.
Just the number please, in %, no unit attached.

Example results:
compound	assay-target	units-of-measure	reported-measurement
CCN1CC(C(=O)NCc2noc(Cc3ccccc3)n2)CCC1=O (stereo unspecified)	Wolbachia pipientis	%	-8.005
COc1ccc(OC2CCN(C(=O)C(C)Cn3cccn3)CC2)cc1 (stereo unspecified)	Wolbachia pipientis	%	-7.925
Cn1cccc1C(=O)N1CCCn2nc(CCC(=O)NC3CC3)cc2C1	Wolbachia pipientis	%	139.6
CC(C(=O)NCc1cccc(N2CCCC2=O)c1)S(C)(=O)=O (stereo unspecified)	Wolbachia pipientis	%	-9.157
Cc1ccc(C(=O)N2CCCn3nc(CCC(=O)O)cc3C2)cc1Cl	Wolbachia pipientis	%	11.92

Known value: Wolbachia pipientis Percent Effect of the compound `N[C@@H](Cc1c[nH]cn1)C(=O)N1CCC(Oc2ccc(Cl)cc2)CC1` equals 129.2

* * *

- Test system: Wolbachia pipientis
- experimental-details: Anti-Wolbachia Cell-Based Screen
- Format: functional
- Set-up: scale not given: in the data most compounds retested in dose-response had high values
- experimental-conditions: 5 µM
Out of some 48,000 compounds screened, about 13,000 (27%) showed an effect of 50% or more. The list shows a part of the results.
# Percent Effect per record follows
Give a bare numeral; the unit % is implied.

Record excerpt, results attached:
molecule	Percent Effect / %
CCN1c2ccc(-c3cncn3CCCn3ccnc3C)cc2CC1C.Cl (stereo not given)	77.37
CCS(=O)(=O)N1CCC(c2nccn2Cc2ccccn2)CC1	-0.918
Cc1nccn1CCCNC(=O)C1CCCCN1Cc1ccncc1 (stereo not given)	-5.862

The molecule listed as Cc1cc2ccccc2n1CCC(=O)N1CCCC1Cn1cccn1 (stereo not given) shows Percent Effect equal to -4.808

# molecule Cc1cc(=O)c(C(=O)N2CCCCC2c2ccc(F)cc2)c[nH]1 (stereo not given) ; its Percent Effect = -20.91

* * *

- Tested on: Wolbachia pipientis
- experimental-details: Anti-Wolbachia Cell-Based Screen
- Format: functional
- Design: scale not given: in the data most compounds retested in dose-response had high values
- experimental-conditions: 5 µM
Screen size: about 48,000 compounds; about 13,000 (27%) showed an effect of 50% or more. The list shows a part of the results.
Percent Effect less than 90% is Criterion met; Percent Effect greater than or equal to 90% is Criterion not met.

compound	answer-label
CN(C(=O)c1ccc(NC(=O)c2cc[nH]n2)cc1)C1CCCCC1	Criterion met

Query :: Does this compound meet the criterion Percent Effect < 90%? `Cn1cnc2c1CCN(CCS(=O)(=O)c1ccccc1)C2`
Result :: Criterion met

Query :: Strictly below 90% in Percent Effect? `Cn1cc(C(=O)N2CCC(c3nccn3Cc3ccncc3)CC2)cn1`
Result :: Criterion met

* * *

- Test system: Wolbachia pipientis
- experimental-details: Anti-Wolbachia Cell-Based Screen
- Format: functional
- Parameters: scale not given: in the data most compounds retested in dose-response had high values
- experimental-conditions: 5 µM
Out of some 48,000 compounds screened, about 13,000 (27%) showed an effect of 50% or more. Some of the results follow.
readout-label: Percent Effect (%)
The answer is to be given in %; state only the numeric part.

Before answering, review these 10 worked examples.
compound	Percent Effect [%]
Cl.c1cc(NCc2ccncc2)nc(C2CCCN2)c1 (configuration not stated)	109.1
O=C(NCCN1CCOCC1)c1cc2c(s1)CCN2Cc1cccnc1	-4.667
O=C(C1CCOC1)N1CCc2ncc(CNc3ccccn3)n2CC1 (configuration not stated)	-18.08
Cc1ccc(N2C[C@H](C(=O)N3CCOCC3)[C@@H]3CCO[C@@H]3C2)nn1	-2.103
O=C(NCCN1CCCC1)c1cc2c(s1)CCN2c1ncccn1	97.7
Cc1cccc(-c2c[nH]c(C3CCCN3)n2)c1.Cl.Cl (configuration not stated)	-28.51
CCC1CN(CC(=O)NCC(C)C)CCO1 (configuration not stated)	14.46
CC(c1ccon1)N(C)C(=O)C1CCN(C(=O)C2CCC2)CC1 (configuration not stated)	-1.254
COCCCN(C)c1nc(-c2ccncc2)nc(C)c1C	-12.12
Cc1ccc2oc(C(=O)N3CCC(C(=O)N4CCCC4)CC3)cc2n1	-8.823

get_value(item= Cc1cc(C)c(-n2cccn2)c(CN2CCOCC(CN(C)C)C2)c1 (configuration not stated) , readout=Percent Effect) returns 9.231

* * *

- Tested on: Wolbachia pipientis
- experimental-details: Anti-Wolbachia Cell-Based Screen
- Assay type: functional
- Design: scale not given: in the data most compounds retested in dose-response had high values
- experimental-conditions: 5 µM
The whole screen tested about 48,000 compounds, of which about 13,000 (27%) showed an effect of 50% or more. The list shows a part of the results.
readout-label: Percent Effect (%)
State just the number; it will be interpreted in %.

compound	assay-target	units-of-measure	Percent Effect
Cc1ccc(OCCC(=O)NCCCN2CCCC2=O)c(C)c1	Wolbachia pipientis	%	-5.078

The value of Percent Effect measured for the compound COC(=O)N1CCc2ccccc2C1C(=O)NCc1nc(C)no1 (centres undefined) turned out to be 2.573

Please fill in: Percent Effect reported for `O=C(NCCN1CCOCC1)c1ccc(-n2ccc3ccccc32)s1` = -14.37

So for `CN(C)c1nc2c(c(N3CCC4(CC3)CNC(=O)C4)n1)CCCC2` , the logged Percent Effect turned out to be 100.7

The compound listed as `O=C(c1ccc(O)c(Cl)c1)N1CCC(c2n[nH]c(C3CC3)n2)CC1` has a reported Percent Effect of 7.915

// Percent Effect lookup, compound = `CC(C)c1nc2c(n1C)CCN(Cc1nc(-c3ccsc3)no1)C2` , result: 5.269

Form field Percent Effect, entry `Cn1cc(CN2C[C@@H]3CN(C(=O)c4cccn4C)CCO[C@@H]3C2)cn1` : 94.4

Consider `Cc1ccc(CN2C[C@H](O)C[C@H]2c2nc(-c3ccc(F)cc3)no2)cc1` . Its measured Percent Effect is -12.23

Percent Effect for CN1CCc2[nH]nc(C(=O)N3CCCC4(CC3)CNC(=O)O4)c2C1 (centres undefined) is 1.077

Form: compound = Cc1cnn(CC2CCCN2C(=O)c2csc(-c3nnc[nH]3)n2)c1 (centres undefined) ; Percent Effect = 136
